assayedSystem: G-actin (monomeric actin used in microscale thermophoresis) (rabbit, UniProt P68135 1-377)
assayInfo: MST; 2 µM G-actin mixed 1:1 with Aip5 loop peptide (highest stock 2 mM); G-buffer with 0.05% Tween 20; 25 °C; Kd mode fit
conditionNotes: both partners purified
attributeMeasured: pKd
Please note pKd is a logarithmic value: minus log10 of concentration in mol/L. Answer with that number alone.

binder TSLAGGGFHM (also called loop containing peptide; peptides of Aip5 loop) [Aip5 loop peptide (TSLAGGGFHM)] , pKd observed: 4.00
